- testDetails: Growth inhibition of human SKOV3 cells at 10 uM after 48 hrs by sulforhodamine B assay
- Assay type: functional
- experimentalContext: SK-OV-3, 48 h, values are per cent of control
measurementKind: growth, % of control at 10 µM (%)
Numbers only here, please. The scale is %.

Below, 5 compounds whose answers are already recorded.
COc1cc(/C(C#N)=C/c2ccc3c(c2)OCCO3)cc(OC)c1OC :: 17.6
N#C/C(=C\c1ccsc1)c1ccc2c(c1)OCO2 :: 102
COc1ccc(/C=C(\C#N)c2ccc3c(c2)OCO3)c2ccccc12 :: 26.9
COc1cc(/C=C(\C#N)c2ccc3c(c2)OCO3)cc(OC)c1 :: 101
N#C/C(=C\c1cc(Br)cc(Br)c1)c1ccc2c(c1)OCO2 :: 94.4

Lab note: N#C/C(=C\c1c(Cl)cccc1Cl)c1ccc2c(c1)OCO2 gave growth, % of control at 10 µM of 97.9
